assay: In vitro oil-water partitioning coefficient (Log-P), 1-octanol/PBS; assay type: physicochemical; details: 1-octanol/PBS, pH 8.8, At Room temperature/ambient temperature, pH = 8.8; read-out: Experimental (Log P) Avg. Log-P ± SD
testReadout: logP

* CCOC(=O)C1=CCCC[C@H]1S(=O)(=O)Nc1ccc(F)cc1Cl | 0.88

----------
assay: In vitro oil-water partitioning coefficient (Log-P), 1-octanol/PBS; format: physicochemical; details: 1-octanol/PBS, pH 6.5, At 35° C., pH = 6.5; read-out: Experimental (Log P) Average ± SD
testReadout: logP

• CCOC(=O)C1=CCCC[C@H]1S(=O)(=O)Nc1ccc(F)cc1Cl = 1.65

----------
Experiment: In vitro oil-water partitioning coefficient (Log-P), 1-octanol/PBS
Format: physicochemical
Conditions: 1-octanol/PBS, pH 7.1, At Room temperature/ambient temperature, pH = 7.1; read-out: Experimental (Log P) Avg. Log-P ± SD
Protocol: TAK242 raw powder was weighed out (0.003 g) and placed in 2 dram ambered colored glass vials containing equal volumes (1.5 mL) of 1-octanol and PBS (1×, pH=7.4). Various solutions were made, and pH was adjusted and maintained at 6.5, 7.1, 8.8, adjustments were made using 0.1 M HCl solution and 0.1 M NaOH solution. […] A sample of each layer was carefully withdrawn and then analyzed by a validated HPLC method as describe in the HPLC analysis section under methods.
testReadout: logP

* CCOC(=O)C1=CCCC[C@H]1S(=O)(=O)Nc1ccc(F)cc1Cl [Resatorvid] | 1.54

----------
Test: In vitro oil-water partitioning coefficient (Log-P), 1-octanol/PBS
Format: physicochemical
Conditions: 1-octanol/PBS, pH 7.1, At 35° C., pH = 7.1; read-out: Experimental (Log P) Avg. Log-P ± SD
Protocol: TAK242 raw powder was weighed out (0.003 g) and placed in 2 dram ambered colored glass vials containing equal volumes (1.5 mL) of 1-octanol and PBS (1×, pH=7.4). Various solutions were made, and pH was adjusted and maintained at 6.5, 7.1, 8.8, adjustments were made using 0.1 M HCl solution and 0.1 M NaOH solution. […] A sample of each layer was carefully withdrawn and then analyzed by a validated HPLC method as describe in the HPLC analysis section under methods.
testReadout: logP

• CCOC(=O)C1=CCCC[C@H]1S(=O)(=O)Nc1ccc(F)cc1Cl = 1.68

----------
assay: In vitro oil-water partitioning coefficient (Log-P), 1-octanol/PBS; assay type: physicochemical; conditions: 1-octanol/PBS, pH 8.8, At 35° C., pH = 8.8; read-out: Experimental (Log P) Avg. Log-P ± SD
testReadout: logP

* CCOC(=O)C1=CCCC[C@H]1S(=O)(=O)Nc1ccc(F)cc1Cl | 0.94
